From: patent US20230203041A1

The following compounds each carry a recorded pKi for UniProt P29275.
Sequence (P29275 whole entry): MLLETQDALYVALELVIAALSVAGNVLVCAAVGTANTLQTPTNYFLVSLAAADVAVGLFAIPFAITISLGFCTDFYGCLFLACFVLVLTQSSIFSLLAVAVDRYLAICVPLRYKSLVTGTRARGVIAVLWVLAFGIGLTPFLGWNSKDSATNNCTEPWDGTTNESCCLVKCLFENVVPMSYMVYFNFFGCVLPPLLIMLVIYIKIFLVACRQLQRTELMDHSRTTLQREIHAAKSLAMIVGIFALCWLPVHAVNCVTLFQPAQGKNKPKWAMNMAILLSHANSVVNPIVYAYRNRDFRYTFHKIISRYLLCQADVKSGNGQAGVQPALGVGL
Give bare numbers, as −log10 of the molar value.

A selection of reference data follows.
COMPOUND: Cc1cc(-c2c(-c3cccc(C#N)c3)nn3ccc(N4CCN[C@H](C(C)(C)O)C4)nc23)cc(Cl)n1 [Example 2.41]
TARGET OR SYSTEM: UniProt P29275
MEASURE: pKi
ASSAY VALUE: 8.70
--
COMPOUND: Cc1cc(-c2c(-c3cccc(C#N)c3)nn3ccc(C(=O)NCC(C)(C)O)nc23)cc(C(F)F)n1 [Example 12.4]
TARGET OR SYSTEM: UniProt P29275
MEASURE: pKi
ASSAY VALUE: 7.92

With those in mind, consider the next compound.
Lab note: Cc1cc(-c2c(-c3cccc(C#N)c3)nn3ccc(C(=O)NCC4(C)NC(=O)NC4=O)nc23)cc(C)n1 (stereo not drawn) [Example 92.17] gave pKi of 7.55

* * *

Target: human Adenosine A1 receptor (Homo sapiens, UniProt P30542)
Sequence (P30542 whole entry): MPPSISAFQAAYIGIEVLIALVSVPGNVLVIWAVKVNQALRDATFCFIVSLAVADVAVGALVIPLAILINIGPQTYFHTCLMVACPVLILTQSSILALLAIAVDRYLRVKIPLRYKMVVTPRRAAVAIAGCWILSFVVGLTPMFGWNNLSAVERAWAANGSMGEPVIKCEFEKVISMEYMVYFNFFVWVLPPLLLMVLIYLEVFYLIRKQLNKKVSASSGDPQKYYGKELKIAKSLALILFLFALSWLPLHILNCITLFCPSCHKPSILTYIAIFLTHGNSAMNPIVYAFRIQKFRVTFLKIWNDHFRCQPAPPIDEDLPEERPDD
Assay: Adenosine receptor TR-FRET binding assay (CA200645 displacement), A1
Provide the recorded pKi for the entries that follow.
One number for each entry, as −log10 of the molar value.

As a guide, the following entries are already answered.
CHEMICAL STRING: Fc1cccc(-c2cc3nc(NCCN4Cc5ccccc5C4)ccn3n2)c1
pKi: 6.10
//
CHEMICAL STRING: COc1cc(-c2c(-c3cccc(C#N)c3)nn3ccc(NCC(C)(C)O)nc23)cc(C)n1
pKi: 6.83
//
CHEMICAL STRING: Cc1cc(-c2c(-c3cccc(C#N)c3)nn3ccc(C(=O)NCC(C)(C)N)nc23)cc(Cl)n1
pKi: 6.18
//
CHEMICAL STRING: N#Cc1c(-c2ccco2)nn2ccc(NCC3CCN(Cc4ccccc4)CC3)nc12
pKi: 6.40
//
CHEMICAL STRING: Cc1cc(-c2c(-c3cccc(C#N)c3)nn3ccc(O)nc23)cc(Cl)n1
pKi: 6.26

Pending compound:
So, Cc1cc(-c2c(-c3cccc(C#N)c3)nn3ccc(C(=O)N[C@H]4CC[C@](C)(O)CC4)nc23)cc(C)n1 ? Its pKi was 6.69
